Test: Inhibitory concentration against Alpha-mannosidase of Jack bean
Set-up: species or system Canavalia ensiformis
QUANTITY_NAME: IC50 (µM)

INSERT INTO measurements (molecule, unit_label, meas_value) VALUES
  ('Cc1oc(C2NCC(O)C2O)cc1C(=O)OC(C)C (stereo unspecified)', 'µM', 250);

----------
Tested on: Escherichia coli
Assay: Inhibitory activity against Alpha-galactosidase of Escherichia coli at 1 mM; No inhibition
Active and inactive are the calls of the source. The rule behind the calls is not given here.
QUANTITY_NAME: inhibition

INSERT INTO results (compound, target_entity, quantity_name, meas_value) VALUES
  ('Cc1oc(C2NCC(O)C2O)cc1C(=O)O (centres undefined)', 'Escherichia coli', 'inhibition', 'inactive'),
  ('Cc1oc(C2NCC(O)C2O)cc1CO (centres undefined)', 'Escherichia coli', 'inhibition', 'inactive'),
  ('Cc1oc(C2NCC(O)C2O)cc1C(=O)Nc1ccccc1 (centres undefined)', 'Escherichia coli', 'inhibition', 'inactive');

Taken from ChEMBL document CHEMBL1133967.
